Entry source: patent US12502386B2

System: sh-DNMT1 NCI-H82 cell
Experiment: CellTiter-Glo cell viability, sh-DNMT1 NCI-H82 cell (DNMT1 knocked down)
Assay type: cell-based, human
Settings: Homo sapiens, NCI-H82, NCI-H82 with DNMT1 knocked down by shRNA, intracellular ATP, read-out: inhibitory effect on sh-DNMT1 NCI-H82 (IC50)
attribute-measured: IC50 (µM)

[
  {
    "molecule": "COc1ccc2c(c1OCCCCCCCl)C(C)N1CCc3cc4c(cc3C1=C2)OCO4 (centres unmarked)",
    "system-tested": "sh-DNMT1 NCI-H82 cell",
    "measured-result": 6.12
  },
  {
    "molecule": "CC1c2c(ccc3c2OCO3)C=C2c3cc4c(cc3CCN21)OCO4 (centres unmarked)",
    "system-tested": "sh-DNMT1 NCI-H82 cell",
    "measured-result": 20.3
  },
  {
    "molecule": "COc1ccc2c(c1OCCCCc1ccccc1)C(C(Cl)(Cl)Cl)N1CCc3cc4c(cc3C1=C2)OCO4 (centres unmarked)",
    "system-tested": "sh-DNMT1 NCI-H82 cell",
    "measured-result": 1.32
  },
  {
    "molecule": "[2H]C([2H])([2H])Oc1c(OC)ccc2c1C([2H])(C1CCCC1)N1CCc3cc4c(cc3C1=C2)OCO4 (centres unmarked)",
    "system-tested": "sh-DNMT1 NCI-H82 cell",
    "measured-result": 2.58
  },
  {
    "molecule": "CCCCCCC1c2c(ccc(OC)c2OC)C=C2c3cc4c(cc3CCN21)OCCO4 (centres unmarked)",
    "system-tested": "sh-DNMT1 NCI-H82 cell",
    "measured-result": 3.86
  },
  {
    "molecule": "COc1ccc2c(c1OCCCCCCNC(=O)OC(C)(C)C)C(C1CCCC1)N1CCc3cc4c(cc3C1=C2)OCO4 (centres unmarked)",
    "system-tested": "sh-DNMT1 NCI-H82 cell",
    "measured-result": 3.12
  }
]

1: CCCC1=C2c3cc4c(cc3CCN2C(C(Cl)(Cl)Cl)c2c1ccc(OC)c2OC)OCO4 (centres unmarked)
2: CCCCCC1c2c(ccc3c2OCO3)C=C2c3cc4c(cc3CCN21)OCO4 (centres unmarked)
Inquiry: I would appreciate it if you could say which entry, 1 or 2 , has the lower IC50 value. State the label of the item chosen.
Reply text: 2

---

System: sh-DNMT1 NCI-H82 cell
Assay: CellTiter-Glo cell viability, sh-DNMT1 NCI-H82 cell (DNMT1 knocked down)
Format: cell-based, human
Conditions: Homo sapiens, NCI-H82, NCI-H82 with DNMT1 knocked down by shRNA, intracellular ATP, read-out: inhibitory effect on sh-DNMT1 NCI-H82 (IC50)
attribute-measured: IC50 (µM)

Some solved cases for reference:
[
  {
    "compound": "COc1ccc2c(c1OC)CN1CCc3cc4c(cc3C1=C2Cc1ccc(OC(F)(F)F)cc1)OCO4",
    "attribute-measured": "IC50",
    "result-units": "µM",
    "measured-result": 3.48
  },
  {
    "compound": "COc1ccc2c(c1OC)C(C)N1CCc3cc4c(cc3C1=C2)OCCO4 (stereo not shown)",
    "attribute-measured": "IC50",
    "result-units": "µM",
    "measured-result": 12.1
  }
]

a: COc1ccc2c(c1OCCNC(=O)OC(C)(C)C)C(C)N1CCc3cc4c(cc3C1=C2)OCO4 (stereo not shown)
b: CCCCCCCCC1=C2c3cc4c(cc3CCN2C(C(Cl)(Cl)Cl)c2c1ccc(OC)c2OC)OCO4 (stereo not shown)
Inquiry: Name the one with the greater IC50 value, either a or b as given. Record your answer as the label of the chosen record.
Reply text: a
(a: 10.8 µM, b: 5.68 µM)

---

Tested on: sh-DNMT1 NCI-H82 cell
Assay: CellTiter-Glo cell viability, sh-DNMT1 NCI-H82 cell (DNMT1 knocked down)
Type: cell-based, human
Settings: Homo sapiens, NCI-H82, NCI-H82 with DNMT1 knocked down by shRNA, intracellular ATP, read-out: inhibitory effect on sh-DNMT1 NCI-H82 (IC50)
attribute-measured: IC50 (µM)

Below, each entry is followed by its recorded IC50 result.
[
  {
    "compound": "CCCOc1c(OC)ccc2c1C(C1CCCC1)N1CCc3cc4c(cc3C1=C2)OCO4 (centres unmarked)",
    "measured-result": 2.32
  },
  {
    "compound": "COc1ccc2c(c1OCCCF)C(C)N1CCc3cc4c(cc3C1=C2)OCO4 (centres unmarked)",
    "measured-result": 16.8
  },
  {
    "compound": "COc1ccc2c(c1NCCc1ccccc1)C(C)N1CCc3cc4c(cc3C1=C2)OCO4 (centres unmarked)",
    "measured-result": 4.68
  },
  {
    "compound": "COc1ccc2c(c1OC)C(C(Cl)(Cl)Cl)N1CCc3cc4c(cc3C1=C2Cc1ccccn1)OCO4 (centres unmarked)",
    "measured-result": 24.3
  },
  {
    "compound": "COc1ccc2c(c1N1CCC(C(F)(F)F)CC1)C(C(Cl)(Cl)Cl)N1CCc3cc4c(cc3C1=C2)OCO4 (centres unmarked)",
    "measured-result": 1.98
  },
  {
    "compound": "COc1ccc2c(c1OC)C(c1ccncc1)N1CCc3cc4c(cc3C1=C2)OCO4 (centres unmarked)",
    "measured-result": 7.83
  },
  {
    "compound": "CCC1=C2c3cc4c(cc3CCN2C(C(Cl)(Cl)Cl)c2c1ccc1c2OCO1)OCO4 (centres unmarked)",
    "measured-result": 18.8
  },
  {
    "compound": "CCCC1=C2c3cc4c(cc3CCN2C(C(Cl)(Cl)Cl)c2c1ccc1c2OCO1)OCO4 (centres unmarked)",
    "measured-result": 6.98
  },
  {
    "compound": "COc1ccc2c(c1OC)C(C(Cl)(Cl)Cl)N1CCc3cc4c(cc3C1=C2CCc1ccccc1)OCO4 (centres unmarked)",
    "measured-result": 5.28
  },
  {
    "compound": "COc1ccc2c(c1OCCCCOc1ccccc1)C(C)N1CCc3cc4c(cc3C1=C2)OCO4 (centres unmarked)",
    "measured-result": 3.98
  }
]

P: COc1ccc2c(c1N1CCC(C)CC1)C(C(Cl)(Cl)Cl)N1CCc3cc4c(cc3C1=C2)OCO4 (centres unmarked)
Q: COc1ccc2c(c1OC/C=C(\C)CCC=C(C)C)C(C)N1CCc3cc4c(cc3C1=C2)OCO4 (centres unmarked)
R: COc1ccc2c(c1OCCCBr)C(C)N1CCc3cc4c(cc3C1=C2)OCO4 (centres unmarked)
S: COc1ccc2c(c1OCCN1CCCCC1)C(C)N1CCc3cc4c(cc3C1=C2)OCO4 (centres unmarked)
Inquiry: Kindly order the items shown according to IC50, from the highest value down. Lab note: final answer is the ordered label list.
Reply text: S, R, Q, P

---

Test system: Kelly
Test: CellTiter-Glo cell viability, brain tumor cell line Kelly
Type: cell-based
Conditions: Homo sapiens, 72 h, brain neuroblastoma cell, 3 days of culture, read-out: inhibitory effect on Kelly (IC50)
Each item that follows carries a reported IC50.
Give the value, in units of nM, as a plain number.

Worked set:
[
  {
    "compound": "CCCOc1c(OC)ccc2c1C(C1CCCC1)N1CCc3cc4c(cc3C1=C2)OCO4 (stereo not drawn) [AB35512]",
    "IC50 [nM]": 4230
  },
  {
    "compound": "COc1ccc2c(c1OC)C(C(Cl)(Cl)Cl)N1CCc3cc4c(cc3C1=C2CCCc1ccccc1)OCO4 (stereo not drawn) [AB35417]",
    "IC50 [nM]": 1240
  },
  {
    "compound": "COc1ccc2c(c1OCCCCl)C(C1CCCC1)N1CCc3cc4c(cc3C1=C2)OCO4 (stereo not drawn) [AB35434]",
    "IC50 [nM]": 2460
  },
  {
    "compound": "COc1ccc2c(c1OC)C(C1CCCCC1)N1CCc3cc4c(cc3C1=C2)OCO4 (stereo not drawn) [AB31893]",
    "IC50 [nM]": 2090
  },
  {
    "compound": "COc1ccc2c(c1OCCCc1ccccc1)C(C(Cl)(Cl)Cl)N1CCc3cc4c(cc3C1=C2)OCO4 (stereo not drawn) [AB35525]",
    "IC50 [nM]": 3120
  },
  {
    "compound": "C=CCOc1c(OC)ccc2c1C(C(Cl)(Cl)Cl)N1CCc3cc4c(cc3C1=C2)OCO4 (stereo not drawn) [AB35534]",
    "IC50 [nM]": 2090
  },
  {
    "compound": "COc1ccc2c(c1N1CCC(C)CC1)C(C1CCCC1)N1CCc3cc4c(cc3C1=C2)OCO4 (stereo not drawn) [AB35510]",
    "IC50 [nM]": 2020
  },
  {
    "compound": "COc1ccc2c(c1OCCCCl)C(C(Cl)(Cl)Cl)N1CCc3cc4c(cc3C1=C2)OCO4 (stereo not drawn) [AB35441]",
    "IC50 [nM]": 3160
  },
  {
    "compound": "CCCC1=C2c3cc4c(cc3CCN2C(C2CCCC2)c2c1ccc(OC)c2OC)OCO4 (stereo not drawn) [AB35504]",
    "IC50 [nM]": 3030
  },
  {
    "compound": "COc1ccc2c(c1OCCCCl)CN1CCc3cc4c(cc3C1=C2)OCO4 [AB35543]",
    "IC50 [nM]": 1540
  }
]

Inquiry: Fill in the blank: the reported IC50 of COc1ccc2c(c1OC)C(C1CCCC1)N1CCc3cc4c(cc3C1=C2CCCc1ccccc1)OCO4 (stereo not drawn) [AB35436] is ____.
Reply text: 3120

Inquiry: I am curious: what IC50 value has been reported for COc1ccc2c(c1OCCCCOc1ccccc1)C(C(Cl)(Cl)Cl)N1CCc3cc4c(cc3C1=C2)OCO4 (stereo not drawn) [AB35476] ?
Reply text: 1320

Inquiry: So what does the record say about IC50 for CCCOc1c(OC)ccc2c1CN1CCc3cc4c(cc3C1=C2)OCO4 [AB35536] ?
Reply text: 2560

Inquiry: Recorded IC50 for [2H]C([2H])([2H])Oc1c(OC)ccc2c1C(C1CCCC1)N1CCc3cc4c(cc3C1=C2)OCO4 (stereo not drawn) [AB36501] , please?
Reply text: 1380
